Data provenance is paper PMC9699427.

assay: Pharmacokinetics after iv and oral dosing; format: in vivo, BALB/c mice; settings: mouse, plasma; po 30 mg/kg, female BALB/c mice; read-out: F
measured-property: bioavailability

Exam item: Supply recorded bioavailability for Cc1cc(C#N)cc(C)c1Oc1nc(NC2CCN(Cc3ccc(S(N)(=O)=O)cc3)CC2)nc2ccsc12 [K-5a2] here.
Marked response: 7.05%

###

Target: CYP1A2 (Homo sapiens, UniProt P05177)
Sequence (P05177 1-516): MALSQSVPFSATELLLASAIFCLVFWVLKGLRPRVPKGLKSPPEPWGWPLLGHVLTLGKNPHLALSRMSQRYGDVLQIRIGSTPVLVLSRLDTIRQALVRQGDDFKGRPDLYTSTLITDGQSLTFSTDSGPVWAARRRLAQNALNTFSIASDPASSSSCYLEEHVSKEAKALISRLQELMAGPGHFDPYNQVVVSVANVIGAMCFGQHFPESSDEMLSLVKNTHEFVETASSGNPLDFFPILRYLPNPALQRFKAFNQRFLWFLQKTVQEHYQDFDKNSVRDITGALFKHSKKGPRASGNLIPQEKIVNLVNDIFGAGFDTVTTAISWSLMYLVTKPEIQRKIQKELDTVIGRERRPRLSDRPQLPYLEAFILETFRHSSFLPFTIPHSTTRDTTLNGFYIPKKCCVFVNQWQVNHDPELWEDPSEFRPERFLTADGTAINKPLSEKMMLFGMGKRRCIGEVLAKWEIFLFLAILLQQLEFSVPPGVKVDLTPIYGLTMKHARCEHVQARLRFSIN
measured-property: pIC50
Give bare numbers, as −log10 of the molar value.

Exam item: Supply measured pIC50 of Cc1cc(C#N)cc(C)c1Oc1nc(Nc2ccc(C#N)cc2)nc(N)c1Br [ETR, etravirine, reference compound] in your reply.
Marked response: 5.13
